Recorded log10 of Ki values for a group of compounds are listed next.
Target: UniProt P19327
Sequence (P19327 whole entry): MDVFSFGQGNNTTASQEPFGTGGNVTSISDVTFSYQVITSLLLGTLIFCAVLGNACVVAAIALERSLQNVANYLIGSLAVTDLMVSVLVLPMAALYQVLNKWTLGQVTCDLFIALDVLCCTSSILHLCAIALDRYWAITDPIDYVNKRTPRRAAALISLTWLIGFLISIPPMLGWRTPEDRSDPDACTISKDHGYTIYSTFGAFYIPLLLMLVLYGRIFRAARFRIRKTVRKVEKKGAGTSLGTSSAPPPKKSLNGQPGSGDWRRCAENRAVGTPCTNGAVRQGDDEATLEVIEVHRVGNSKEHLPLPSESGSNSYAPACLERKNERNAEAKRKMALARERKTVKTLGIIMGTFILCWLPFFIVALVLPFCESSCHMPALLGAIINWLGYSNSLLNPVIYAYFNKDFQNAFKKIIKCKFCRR
A value of 2 here means Ki of 100 in nM, since values are log10.

Input line: For UniProt P19327, provide log10 of Ki of CN(C)CCc1c[nH]c2ccc(O)cc12 please.
Output line: 2.41

Input line: Quick check: log10 of Ki on UniProt P19327, item NCCc1c[nH]c2cc(O)ccc12 ?
Output line: 3.20
